# Test system: RH4 rhabdomyosarcoma cells
# protocol-text: Cell viability IC50, RH4
# Format: cell-based
# condition: Homo sapiens, RH4 (RM)
measurement-label: IC50

Return value of IC50 for input Nc1nc(Cl)nc2c1ncn2[C@H]1C[C@H](O)[C@@H](CO)O1 , no commentary.
> 30 µM

Quote IC50 reported for Nc1nc(Cl)nc2c1ncn2[C@@H]1O[C@H](CO)[C@@H](O)[C@@H]1F please.
> 10 µM

* * *

# Test system: SK-N-MC ES cells
# protocol-text: Cell viability IC50, SK-N-MC
# Type: cell-based
# condition: Homo sapiens
measurement-label: IC50 (nM)
Numeric only. Scale: nM

Tell us which IC50 value is on record for Nc1nc(Cl)nc2c1ncn2[C@@H]1O[C@H](CO)[C@@H](O)[C@@H]1F [clofarabine]
170

Name the recorded IC50 of the item Nc1nc(Cl)nc2c1ncn2[C@H]1C[C@H](O)[C@@H](CO)O1 [cladribine] in your answer.
680

* * *

# Tested on: SAOS-2 OS cells
# protocol-text: Cell viability IC50, SAOS-2
# Type: cell-based
# condition: Homo sapiens
Recorded IC50 by entry

Identify measured IC50 associated with Nc1nc(Cl)nc2c1ncn2[C@H]1C[C@H](O)[C@@H](CO)O1 [cladribine]
> 30 µM

Continuing:
Query IC50 for Nc1nc(Cl)nc2c1ncn2[C@@H]1O[C@H](CO)[C@@H](O)[C@@H]1F [clofarabine]
> 30 µM

* * *

# study-target: CD99-ECD (extracellular domain of human CD99) (Homo sapiens)
# Construct: the extracellular domain (Asp23-Asp122) of human CD99; made in house; host or cells: Escherichia coli BL21 (DE3)
# Sequence (P14209 23-122): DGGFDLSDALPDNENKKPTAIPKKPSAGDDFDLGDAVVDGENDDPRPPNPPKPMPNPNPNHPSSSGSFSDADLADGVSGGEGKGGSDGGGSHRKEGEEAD
# protocol-text: SPR binding, CD99-ECD purified from bacteria
measurement-label: Kd (µM)
I only need the number, in µM, no unit after it.

Report measured Kd; entry is Nc1nc(Cl)nc2c1ncn2[C@@H]1O[C@H](CO)[C@@H](O)[C@@H]1F [clofarabine]
4.6

Now for another entry.
Provide Kd value for the following compound: Nc1nc(Cl)nc2c1ncn2[C@H]1C[C@H](O)[C@@H](CO)O1 [cladribine]
3.8

* * *

# Test system: TC-71 ES cells
# protocol-text: Cell viability IC50, TC-71
# Type: cell-based, human
# condition: Homo sapiens; TC-71 cells, WST-1, 48 h (FIG. 10B)
measurement-label: IC50 (nM)
Write down the numeric answer in nM and omit the unit.

For the compound Nc1nc(Cl)nc2c1ncn2[C@@H]1O[C@H](CO)[C@@H](O)[C@@H]1F , report IC50.
150

The values you see were collected from patent US11202792B2.
